The values you see were collected from ChEMBL document CHEMBL4011598.

- assayed.system: UniProt P05177
- Sequence (P05177 whole entry): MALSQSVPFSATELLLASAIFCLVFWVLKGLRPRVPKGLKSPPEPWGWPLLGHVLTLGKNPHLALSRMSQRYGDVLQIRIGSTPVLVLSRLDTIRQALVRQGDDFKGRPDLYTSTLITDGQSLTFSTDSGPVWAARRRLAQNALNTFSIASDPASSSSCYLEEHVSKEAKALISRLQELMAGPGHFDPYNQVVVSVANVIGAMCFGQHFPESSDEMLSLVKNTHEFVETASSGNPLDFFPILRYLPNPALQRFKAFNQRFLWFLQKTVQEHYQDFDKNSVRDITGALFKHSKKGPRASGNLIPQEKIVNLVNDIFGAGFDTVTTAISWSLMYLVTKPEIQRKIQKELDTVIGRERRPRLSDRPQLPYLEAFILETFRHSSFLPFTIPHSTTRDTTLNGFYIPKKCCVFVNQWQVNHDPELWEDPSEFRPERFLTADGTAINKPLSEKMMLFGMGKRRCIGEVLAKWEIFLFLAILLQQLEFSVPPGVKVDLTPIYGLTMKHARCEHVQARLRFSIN
experimental.endpoint: IC50

* COc1cc(-c2cccc(C(F)(F)F)c2)c(F)cc1-c1nccc2cc(S(=O)(=O)Nc3ccon3)ccc12 | > 15 µM

====

- assay: Tmax in rat at 10 mg/kg, po
- Type: ADME, organism-based
- applied.conditions: in vivo
experimental.endpoint: Tmax (h)

- COc1cc(-c2cccc(C(F)(F)F)c2)c(F)cc1-c1nccc2cc(S(=O)(=O)Nc3ccon3)ccc12: 6

====

- assay: Oral bioavailability in rat at 10 mg/kg
- Assay type: ADME, organism-based
- applied.conditions: in vivo
experimental.endpoint: bioavailability (%)

* COc1cc(-c2cccc(C(F)(F)F)c2)c(F)cc1-c1nccc2cc(S(=O)(=O)Nc3ccon3)ccc12 | 54

====

- assayed.system: Sodium channel protein type 9 subunit alpha (Rattus norvegicus, UniProt O08562)
- Sequence (O08562 whole entry): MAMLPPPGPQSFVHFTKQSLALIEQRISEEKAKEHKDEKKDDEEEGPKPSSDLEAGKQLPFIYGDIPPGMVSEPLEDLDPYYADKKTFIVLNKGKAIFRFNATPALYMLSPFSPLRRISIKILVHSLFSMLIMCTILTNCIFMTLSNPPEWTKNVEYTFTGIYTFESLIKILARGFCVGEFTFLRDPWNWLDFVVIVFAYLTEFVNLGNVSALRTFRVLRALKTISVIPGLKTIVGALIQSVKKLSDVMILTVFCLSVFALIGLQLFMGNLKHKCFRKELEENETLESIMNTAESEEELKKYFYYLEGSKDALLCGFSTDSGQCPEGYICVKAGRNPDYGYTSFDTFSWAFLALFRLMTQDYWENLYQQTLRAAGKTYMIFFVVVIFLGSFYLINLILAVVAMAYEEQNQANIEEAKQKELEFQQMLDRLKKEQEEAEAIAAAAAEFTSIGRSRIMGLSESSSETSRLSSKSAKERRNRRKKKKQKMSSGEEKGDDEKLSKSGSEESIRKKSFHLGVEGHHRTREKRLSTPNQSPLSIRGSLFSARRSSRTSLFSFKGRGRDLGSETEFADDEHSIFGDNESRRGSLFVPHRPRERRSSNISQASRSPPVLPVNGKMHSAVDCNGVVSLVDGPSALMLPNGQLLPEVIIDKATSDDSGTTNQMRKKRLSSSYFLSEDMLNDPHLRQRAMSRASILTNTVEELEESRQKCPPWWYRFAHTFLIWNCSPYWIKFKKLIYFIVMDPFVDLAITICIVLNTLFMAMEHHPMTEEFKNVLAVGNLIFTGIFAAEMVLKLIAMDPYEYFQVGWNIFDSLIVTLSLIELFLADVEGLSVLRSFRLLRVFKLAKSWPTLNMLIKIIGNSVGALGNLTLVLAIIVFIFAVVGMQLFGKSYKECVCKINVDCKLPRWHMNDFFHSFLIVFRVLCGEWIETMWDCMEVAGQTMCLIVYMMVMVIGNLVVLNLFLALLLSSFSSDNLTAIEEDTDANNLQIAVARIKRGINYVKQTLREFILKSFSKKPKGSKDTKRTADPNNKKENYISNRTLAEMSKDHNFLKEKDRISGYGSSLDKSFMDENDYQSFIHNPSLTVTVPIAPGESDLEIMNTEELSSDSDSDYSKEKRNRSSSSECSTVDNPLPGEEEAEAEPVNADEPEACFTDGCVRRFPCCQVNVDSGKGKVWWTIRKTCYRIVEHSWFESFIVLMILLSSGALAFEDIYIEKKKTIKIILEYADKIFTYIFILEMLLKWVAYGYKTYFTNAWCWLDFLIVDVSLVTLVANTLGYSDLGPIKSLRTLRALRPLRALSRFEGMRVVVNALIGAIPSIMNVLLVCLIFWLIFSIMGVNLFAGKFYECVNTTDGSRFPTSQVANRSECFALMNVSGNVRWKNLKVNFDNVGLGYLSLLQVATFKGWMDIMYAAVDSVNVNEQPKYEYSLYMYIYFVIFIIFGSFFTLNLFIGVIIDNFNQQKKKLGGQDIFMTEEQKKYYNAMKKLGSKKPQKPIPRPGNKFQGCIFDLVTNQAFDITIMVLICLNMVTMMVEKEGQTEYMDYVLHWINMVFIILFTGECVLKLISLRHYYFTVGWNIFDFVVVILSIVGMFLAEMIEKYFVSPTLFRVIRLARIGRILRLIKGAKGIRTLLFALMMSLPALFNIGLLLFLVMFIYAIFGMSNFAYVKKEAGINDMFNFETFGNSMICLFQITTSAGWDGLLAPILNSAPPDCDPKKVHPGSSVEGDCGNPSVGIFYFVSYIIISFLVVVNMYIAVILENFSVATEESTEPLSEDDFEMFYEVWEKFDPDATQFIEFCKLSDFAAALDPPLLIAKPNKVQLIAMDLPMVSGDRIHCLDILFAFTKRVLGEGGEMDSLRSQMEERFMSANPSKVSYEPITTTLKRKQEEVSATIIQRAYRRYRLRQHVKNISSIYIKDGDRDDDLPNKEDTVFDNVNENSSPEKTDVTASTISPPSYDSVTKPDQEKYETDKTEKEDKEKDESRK
- assay: Inhibition of rat Nav1.7 expressed in HEK293T cells incubated for 3 to 5 mins at -125 mV holding potential by electrophysiology assay
pIC50: −log10 of the molar value.
experimental.endpoint: pIC50

* COc1cc(-c2cccc(C(F)(F)F)c2)c(F)cc1-c1nccc2cc(S(=O)(=O)Nc3ccon3)ccc12 | 5.40

====

- assayed.system: Sodium channel protein type 9 subunit alpha (Mus musculus)
- assay: Inhibition of mouse Nav1.7 expressed in HEK293 cells incubated for 3 to 5 mins at -125 mV holding potential by electrophysiology assay
experimental.endpoint: IC50 (nM)

• COc1cc(-c2cccc(C(F)(F)F)c2)c(F)cc1-c1nccc2cc(S(=O)(=O)Nc3ccon3)ccc12 = 36

====

- assay: Unbound fraction in mouse plasma at 5 uM by LC-MS/MS method
- Format: ADME, cell-free
experimental.endpoint: fraction unbound at 5 µM

* COc1cc(-c2cccc(C(F)(F)F)c2)c(F)cc1-c1nccc2cc(S(=O)(=O)Nc3ccon3)ccc12 | 0.0116

====

- assay: AUC in dog at 2 mg/kg, po
- Format: ADME, organism-based, Canis lupus familiaris
- applied.conditions: in vivo
experimental.endpoint: AUC (µM·h)

* COc1cc(-c2cccc(C(F)(F)F)c2)c(F)cc1-c1nccc2cc(S(=O)(=O)Nc3ccon3)ccc12 | 101

====

- assayed.system: Sodium channel protein type 9 subunit alpha (Homo sapiens, UniProt Q15858)
- Sequence (Q15858 whole entry): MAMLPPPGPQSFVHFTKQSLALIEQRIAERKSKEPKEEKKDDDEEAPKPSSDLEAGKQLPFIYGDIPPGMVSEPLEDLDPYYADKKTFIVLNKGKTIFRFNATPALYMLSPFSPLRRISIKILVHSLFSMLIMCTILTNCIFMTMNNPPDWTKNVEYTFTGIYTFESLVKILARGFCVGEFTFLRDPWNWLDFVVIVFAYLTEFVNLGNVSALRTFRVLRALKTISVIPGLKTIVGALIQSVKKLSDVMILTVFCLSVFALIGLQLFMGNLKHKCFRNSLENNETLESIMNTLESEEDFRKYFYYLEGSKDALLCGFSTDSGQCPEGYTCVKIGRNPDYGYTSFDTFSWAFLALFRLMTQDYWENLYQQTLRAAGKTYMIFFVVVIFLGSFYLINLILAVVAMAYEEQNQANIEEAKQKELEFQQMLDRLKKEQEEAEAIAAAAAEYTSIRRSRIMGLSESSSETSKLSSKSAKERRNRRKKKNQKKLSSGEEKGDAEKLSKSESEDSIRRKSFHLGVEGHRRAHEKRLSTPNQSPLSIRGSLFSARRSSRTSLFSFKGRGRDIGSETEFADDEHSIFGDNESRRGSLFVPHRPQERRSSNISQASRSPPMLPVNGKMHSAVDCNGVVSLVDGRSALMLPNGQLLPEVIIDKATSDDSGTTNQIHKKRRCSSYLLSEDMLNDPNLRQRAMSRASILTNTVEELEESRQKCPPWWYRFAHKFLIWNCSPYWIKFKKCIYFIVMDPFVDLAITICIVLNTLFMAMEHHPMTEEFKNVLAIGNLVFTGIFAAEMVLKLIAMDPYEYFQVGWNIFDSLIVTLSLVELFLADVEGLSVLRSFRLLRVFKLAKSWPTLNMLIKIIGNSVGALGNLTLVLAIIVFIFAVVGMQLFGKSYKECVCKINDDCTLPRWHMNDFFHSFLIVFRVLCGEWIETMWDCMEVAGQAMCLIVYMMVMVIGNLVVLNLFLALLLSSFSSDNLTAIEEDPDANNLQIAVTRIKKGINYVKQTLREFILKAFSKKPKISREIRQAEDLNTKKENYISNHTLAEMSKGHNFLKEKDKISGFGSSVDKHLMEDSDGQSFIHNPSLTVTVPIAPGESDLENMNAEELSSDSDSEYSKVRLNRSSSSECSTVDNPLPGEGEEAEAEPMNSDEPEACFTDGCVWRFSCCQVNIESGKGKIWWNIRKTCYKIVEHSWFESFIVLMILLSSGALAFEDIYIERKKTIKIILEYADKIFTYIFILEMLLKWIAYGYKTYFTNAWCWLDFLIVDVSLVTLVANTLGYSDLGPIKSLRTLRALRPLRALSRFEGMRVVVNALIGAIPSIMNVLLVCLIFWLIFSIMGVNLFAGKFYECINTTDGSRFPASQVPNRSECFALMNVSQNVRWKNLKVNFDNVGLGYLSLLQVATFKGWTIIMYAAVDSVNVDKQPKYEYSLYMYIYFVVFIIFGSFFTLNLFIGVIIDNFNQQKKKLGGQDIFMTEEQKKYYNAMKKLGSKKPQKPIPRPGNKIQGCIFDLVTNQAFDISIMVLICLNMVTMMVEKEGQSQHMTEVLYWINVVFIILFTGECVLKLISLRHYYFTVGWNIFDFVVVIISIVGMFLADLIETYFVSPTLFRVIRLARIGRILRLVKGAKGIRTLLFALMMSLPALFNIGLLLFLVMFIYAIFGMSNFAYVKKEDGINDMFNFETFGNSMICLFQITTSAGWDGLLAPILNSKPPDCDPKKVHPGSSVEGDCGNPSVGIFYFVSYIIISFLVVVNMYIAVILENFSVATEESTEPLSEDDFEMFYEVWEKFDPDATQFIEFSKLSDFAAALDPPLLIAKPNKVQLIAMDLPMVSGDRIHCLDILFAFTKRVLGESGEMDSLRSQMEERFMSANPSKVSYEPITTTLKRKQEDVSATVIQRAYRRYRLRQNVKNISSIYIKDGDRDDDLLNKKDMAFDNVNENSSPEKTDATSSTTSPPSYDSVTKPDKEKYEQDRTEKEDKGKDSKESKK
- assay: Inhibition of human Nav1.7 expressed in HEK293 cells incubated for 3 to 5 mins at -125 mV holding potential by electrophysiology assay
- Type: cell-based
Class (required): determined from IC50; valid ranges are lower level = under 50 nM, middle level = from 50 nM up to 100 nM, upper level = 100 nM and over

• COc1cc(-c2cccc(C(F)(F)F)c2)c(F)cc1-c1nccc2cc(S(=O)(=O)Nc3ccon3)ccc12 = lower level
• COc1cc(-c2cccc(C)c2)c(F)cc1-c1nccc2cc(S(=O)(=O)Nc3ccon3)ccc12 = lower level
• COc1cc(-c2cc(F)cc(F)c2)c(F)cc1-c1nccc2cc(S(=O)(=O)Nc3ccon3)ccc12 = lower level
• COc1cc(-c2cccc(F)c2)c(Cl)cc1-c1nccc2cc(S(=O)(=O)Nc3ncon3)ccc12 = lower level
• COc1cc(-c2cc(F)cc(F)c2)c(C#N)cc1-c1nccc2cc(S(=O)(=O)Nc3ccon3)ccc12 = upper level
• COc1cc(-c2cccc(C(F)(F)F)c2)ccc1-c1nccc2cc(S(=O)(=O)Nc3ccon3)ccc12 = middle level
• COc1cc(-c2cccc(F)c2)c(Cl)cc1-c1nccc2cc(S(=O)(=O)Nc3ncccn3)ccc12 = upper level
• COc1cc(C(F)(F)F)ccc1-c1nccc2cc(S(=O)(=O)Nc3ccncn3)ccc12 = upper level
• COc1cc(-c2cccc(C(F)(F)F)c2)c(C#N)cc1-c1nccc2cc(S(=O)(=O)Nc3ccon3)ccc12 = lower level
• COc1cc(-c2cccc(F)c2)ccc1-c1nccc2cc(S(=O)(=O)Nc3ccncn3)ccc12 = upper level
• COc1cc(-c2cccc(F)c2)c(Cl)cc1-c1nccc2cc(S(=O)(=O)Nc3ccncn3)ccc12 = middle level
• COc1cc(-c2cccc(F)c2)c(Cl)cc1-c1nn(C)c(=O)c2cc(S(=O)(=O)Nc3ccon3)ccc12 = upper level
